Experiment: Tmax in ICR(CD-1) mouse at 10 mg/kg, po administered via gavage by triple quadrupole mass spectrometric analysis
Assay type: ADME, organism-based
Conditions: in vivo
Field: Tmax. Provide a value for each of the molecules that follow.
Answer in h, number only, no unit symbol.

Enquiry: What measured Tmax goes with Cc1ccc(C(=O)Nc2cccc(C(F)(F)F)c2)cc1-c1ccc2c(-c3ccc(N4CCN(C)CC4)cc3)n[nH]c2c1 ?
Return: 1.33

Enquiry: Given the entry Cc1ccc(C(=O)Nc2cccc(C(F)(F)F)c2)cc1-c1ccc2c(-c3cnn(C4CC4)c3)n[nH]c2c1 , report its measured Tmax.
Return: 2

Enquiry: Can you share its Tmax? I mean this molecule: Cc1ccc(C(=O)Nc2cc(CN3CCN(C)CC3)cc(C(F)(F)F)c2)cc1-c1ccc2c(-c3cnn(C4CC4)c3)n[nH]c2c1
Return: 1.67

Enquiry: What measured Tmax goes with Cc1ccc(C(=O)Nc2cccc(C(F)(F)F)c2)cc1-c1ccc2c(-c3cnn(CC(C)O)c3)n[nH]c2c1 (stereo unspecified) ?
Return: 0.25

Enquiry: Please report the recorded Tmax for Cc1ccc(C(=O)Nc2cccc(C(F)(F)F)c2)cc1-c1ccc2c(-c3cnn(C)c3)n[nH]c2c1 .
Return: 1.17

Enquiry: Entry under review: Cc1ccc(C(=O)Nc2cccc(C(F)(F)F)c2)cc1-c1ccc2c(-c3cnn(C4CCN(C)CC4)c3)n[nH]c2c1 . Reported Tmax?
Return: 1.33
